Where do these numbers come from? They come from paper PMC8858294.

molecular target: SlyD^WT FKBP (PPIase) domain (Thermus thermophilus); test: biochemical; format: binding
Sequence (Q5SLE7 1-149): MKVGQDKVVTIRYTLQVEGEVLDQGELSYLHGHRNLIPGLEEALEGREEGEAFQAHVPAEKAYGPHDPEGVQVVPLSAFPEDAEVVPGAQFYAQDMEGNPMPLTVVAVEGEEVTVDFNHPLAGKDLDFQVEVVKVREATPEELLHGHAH
Ends that are not written are not given here.
RESULT_TYPE: Kd (µM)
# value in µM; strip the unit string

QUERY: So what Kd did H-TRYKNAKMLPFAFGA-OH [W4K] get with SlyD^WT FKBP (PPIase) domain (Thermus thermophilus)?
RESULT: 3.2

QUERY: So what Kd did H-TRYWNAKMLPFAEGA-OH [F13E] get with SlyD^WT FKBP (PPIase) domain (Thermus thermophilus)?
RESULT: 10.4

QUERY: So what Kd did H-TRYWNAKMLPFAKGA-OH [F13K] get with SlyD^WT FKBP (PPIase) domain (Thermus thermophilus)?
RESULT: 5.2

QUERY: So what Kd did TRYANAKMLPFAFGA [W4A] get with SlyD^WT FKBP (PPIase) domain (Thermus thermophilus)?
RESULT: 8.4

QUERY: So what Kd did H-TRYWNAKMLPFAFMA-OH [G14M] get with SlyD^WT FKBP (PPIase) domain (Thermus thermophilus)?
RESULT: 2.2

QUERY: So what Kd did TRYWNAKMLPFAAGA [F13A] get with SlyD^WT FKBP (PPIase) domain (Thermus thermophilus)?
RESULT: 6.4

QUERY: So what Kd did TRYWNAKMLPFAFGA [psWT] get with SlyD^WT FKBP (PPIase) domain (Thermus thermophilus)?
RESULT: 3.5

QUERY: So what Kd did H-TRYWNAKMLPFAFGL-OH [A15L] get with SlyD^WT FKBP (PPIase) domain (Thermus thermophilus)?
RESULT: 4.1

QUERY: So what Kd did TRYWNAKALPFAFGA [M8A] get with SlyD^WT FKBP (PPIase) domain (Thermus thermophilus)?
RESULT: 6

QUERY: So what Kd did H-TRYENAKMLPFAFGA-OH [W4E] get with SlyD^WT FKBP (PPIase) domain (Thermus thermophilus)?
RESULT: 13.9

QUERY: So what Kd did TRAWNAKMLPFAFGA [Y3A] get with SlyD^WT FKBP (PPIase) domain (Thermus thermophilus)?
RESULT: 17.3

###

Consider the following substances; for each one, report its kcat/KM (SlyDΔIF).
molecular target: SlyDΔIF (Thermus thermophilus); assay: Label-free 1H NMR lineshape prolyl isomerase activity assay with SlyDΔIF; assay type: biochemical; conditions: 1H NMR lineshape analysis, 100 µM peptide, 0 to 6 µM enzyme, 25 °C, 20 mM HEPES, 100 mM NaCl, pH 7.5; linear regression of exchange rate vs enzyme concentration; technical triplicates; error one standard deviation
Ends that are not written are not given here.
# value in M⁻¹ s⁻¹; strip the unit string

QUERY: Quick check: kcat/KM (SlyDΔIF) of TRYWNAKALPFAFGA [M8A] ?
RESULT: 3.1e+06

QUERY: Quick check: kcat/KM (SlyDΔIF) of H-TRYENAKMLPFAFGA-OH [W4E] ?
RESULT: 900000

QUERY: Quick check: kcat/KM (SlyDΔIF) of TRYWNAKMLPFAAGA [F13A] ?
RESULT: 400000

###

molecular target: SlyDΔIF (Thermus thermophilus, UniProt Q5SLE7); assay: ITC, peptide binding to SlyDΔIF (one binding site model); settings: read-out: KD (SlyDΔIF), 1.2 mM peptide into 50 µM SlyD, 25 °C, 20 mM HEPES pH 7.5, 100 mM NaCl, ± error of fit
Sequence (Q5SLE7 entry or part of it, stated change not applied): as the sequence (Q5SLE7 1-149) above
Ends that are not written are not given here.
Consider the following substances; for each one, report its pKd.
# pKd is unitless: minus log10 of the molar concentration; print number only

QUERY: Quick check: pKd of TRYWNAKMLPFAAGA [F13A] ?
RESULT: 4.64

QUERY: Quick check: pKd of H-TRYWNAKMLPFAEGA-OH [F13E] ?
RESULT: 4.44

QUERY: Quick check: pKd of H-TRYKNAKMLPFAFGA-OH [W4K] ?
RESULT: 4.90

QUERY: Quick check: pKd of H-TRYWNAKMLPFAFMA-OH [G14M] ?
RESULT: 5.08

QUERY: Quick check: pKd of H-TRYWNAKMLPFAKGA-OH [F13K] ?
RESULT: 4.70

QUERY: Quick check: pKd of TRYWNAKALPFAFGA [M8A] ?
RESULT: 4.71

QUERY: Quick check: pKd of TRYWNAKMLPFAFGA [psWT] ?
RESULT: 4.81

QUERY: Quick check: pKd of H-TRYWNAKMLPFAFGL-OH [A15L] ?
RESULT: 4.83

QUERY: Quick check: pKd of TRAWNAKMLPFAFGA [Y3A] ?
RESULT: 4.29
